Origin of measurements: PubChem BioAssay (EPA / NIEHS)

- Read-out: Plasminogen activator inhibitor-1 (PAI1), SERPINE1 (gene 5054)
- Test description: BSK_MyoF_PAI1: BioMAP Diversity Plus: MyoF Assay for Plasminogen activator inhibitor-1 (PAI1) Biomarker Activity (AID 2284256)
- Applied conditions: primary human lung fibroblasts
- Protocol: BSK_MyoF is a cell-based, multiplexed-readout assay that uses lung fibroblasts, […], with measurements taken at 24 hours after chemical dosing in a microplate: 96-well plate.BSK_MyoF_PAI1 is an assay component measured in the BSK_MyoF assay. […] The levels of cell surface (or secreted, indicated by the prefix "s") biomarker endpoints were measured by ELISA. […] Plates were read after 6 h.
Activity calls are given as the source filed them. Rule for the calls: active = hit-call score of the fitted dose curve at least 0.9, where 1 is the maximum; inactive = score below 0.9.
Would you mind answering with one of these outcomes? class 1 = active, class 0 = inactive

Sample answers from the record:
O=[N+]([O-])c1cccc2ccccc12; class 0
N#CCCC(Br)(C#N)CBr (stereo not drawn); class 1
CCN(CC)C(=O)C(Cl)=C(C)OP(=O)(OC)OC; class 0
Cc1cccc(OP(=O)(Oc2cccc(C)c2)Oc2cccc(C)c2)c1; class 1
O=C(O)COc1cc(Cl)c(Cl)cc1Cl; class 0
O=c1oc2ccccc2c(O)c1C(CC(O)c1ccc(-c2ccc(Br)cc2)cc1)c1ccccc1 (stereo not drawn); class 1
NC(=O)CCl; class 0
CC(C)(C)c1cc([N+](=O)[O-])cc(C(C)(C)C)c1O; class 1
Cc1ccccc1OP(=O)(Oc1ccccc1C)Oc1ccccc1C; class 1
CC(C)N(C(=O)CCl)c1ccccc1; class 1

*Q* So what was the verdict on c1ccc2sc(SNC3CCCCC3)nc2c1 in this test?
*A* class 0

*Q* So what was the verdict on Oc1c(Br)cc(Br)cc1Br in this test?
*A* class 0

*Q* So what was the verdict on Cc1cc(Cl)ccc1OC(C)C(=O)O (stereo not drawn) in this test?
*A* class 0
